- experimental.details: Mouse plasma assay (metabolic stability)
- Format: in vitro ADME
- setup.conditions: pH 7.4; rat plasma as printed
recorded.endpoint: half-life at 5 µM

>>> reported_measurement("CC(C)(C)OC(=O)Cc1cn2nc(-c3ccc(Cl)cc3)ccc2n1")
"~1 h"

###

- experimental.system: GHB high-affinity binding site/CaMK2a (Rattus norvegicus, UniProt P11275)
- Construct: rat (Sprague-Dawley) cortical synaptic membranes (P2 synaptosomes) were prepared
- Sequence (P11275 whole entry): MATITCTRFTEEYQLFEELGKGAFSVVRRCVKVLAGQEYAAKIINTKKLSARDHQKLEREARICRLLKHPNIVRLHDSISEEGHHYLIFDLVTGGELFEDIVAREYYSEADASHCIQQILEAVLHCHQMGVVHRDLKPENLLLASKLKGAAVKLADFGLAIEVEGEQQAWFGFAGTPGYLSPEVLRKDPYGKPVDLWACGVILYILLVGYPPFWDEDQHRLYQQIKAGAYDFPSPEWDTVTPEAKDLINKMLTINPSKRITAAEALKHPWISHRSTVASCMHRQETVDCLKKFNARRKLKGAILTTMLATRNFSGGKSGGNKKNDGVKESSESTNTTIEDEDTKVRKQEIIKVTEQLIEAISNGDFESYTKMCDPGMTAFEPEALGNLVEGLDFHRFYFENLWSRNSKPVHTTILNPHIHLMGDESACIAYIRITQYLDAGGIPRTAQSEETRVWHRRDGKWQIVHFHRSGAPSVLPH
- experimental.details: Rat brain membrane [3H]NCS-382 binding assay
- setup.conditions: 16 nM [3H]NCS-382, rat cortical synaptic membranes, pH 6.0, 0-4 °C
pKi: −log10 of the molar value.
Entries annotated with measured pKi
recorded.endpoint: pKi

>>> reported_measurement("O=C(O)Cc1cn2nc(-c3cccc(OCc4ccccc4)c3)ccc2n1 [compound 3]")
6.29
>>> reported_measurement("O=C(O)Cc1cn2nc(-c3ccc(Cl)cc3)ccc2n1 [JON-11]")
6.66
>>> reported_measurement("O=C(O)Cc1cn2nc(-c3cccc(Cl)c3)ccc2n1 [compound 2]")
6.64
>>> reported_measurement("COc1ccc(-c2ccc3nc(CC(=O)O)cn3n2)cc1 [compound 6]")
6.08
>>> reported_measurement("O=C(O)Cc1cn2nc(-c3ccc(OCc4ccccc4)cc3)ccc2n1 [compound 4]")
5.66
>>> reported_measurement("COc1cccc(-c2ccc3nc(CC(=O)O)cn3n2)c1 [compound 5]")
6.36
>>> reported_measurement("O=C(O)Cc1cn2nc(-c3ccc(Cl)c(Cl)c3)ccc2n1 [compound 7]")
6.72
